# Protocol Notes: Therapeutic index, ratio of MHC10 for hemolytic activity in mouse erythrocytes preincubated with 10% mouse serum for 6 hrs to MIC for Escherichia coli ATCC 25922 preincubated with 10% mouse serum for 6 hrs
# Assay type: toxicity, cell-based
# Experimental Setup: mouse erythrocytes, read-out: TI
Where a SMILES comes first, the peptide text is derived from it. Side-chain parts run from the residue outwards.
Measured selectivity ratio accompanies every entry in the list below.
// return a plain number; no unit text

Completed entries (count: 2):
Compound	selectivity ratio
N=C(N)NCCC[C@H](NC(=O)[C@@H](N)CCCNC(=N)N)C(=O)NCCCC[C@H](NC(=O)[C@H](CCCNC(=N)N)NC(=O)[C@@H](N)CCCNC(=N)N)C(=O)N[C@@H](Cc1c[nH]c2ccccc12)C(=O)N[C@@H](Cc1c[nH]c2ccccc12)C(=O)N[C@@H](Cc1c[nH]c2ccccc12)C(=O)N[C@@H](Cc1c[nH]c2ccccc12)C(N)=O (H-RRK([Arg-Arg])WWWW-NH2)	0.5
N=C(N)NCCC[C@H](NC(=O)[C@H](CCCNC(=N)N)NC(=O)[C@H](CCCNC(=N)N)NC(=O)[C@H](CCCNC(=N)N)NC(=O)[C@H](CCCCNC(=O)[C@H](Cc1c[nH]c2ccccc12)NC(=O)[C@@H](N)Cc1c[nH]c2ccccc12)NC(=O)[C@H](Cc1c[nH]c2ccccc12)NC(=O)[C@@H](N)Cc1c[nH]c2ccccc12)C(N)=O (H-WWK([Trp-Trp])RRRR-NH2)	0.06

The record that follows has no selectivity ratio shown yet.
Which selectivity ratio is listed for `N=C(N)NCCC[C@H](NC(=O)[C@H](CCCNC(=N)N)NC(=O)[C@H](CCCNC(=N)N)NC(=O)[C@@H](N)CCCNC(=N)N)C(=O)N[C@@H](CCCCN)C(=O)N[C@@H](Cc1c[nH]c2ccccc12)C(=O)N[C@@H](Cc1c[nH]c2ccccc12)C(=O)N[C@@H](Cc1c[nH]c2ccccc12)C(=O)N[C@@H](Cc1c[nH]c2ccccc12)C(N)=O` ? 0.25
